Data provenance: FireProtDB (doi:10.1016/0022-2836(82)90184-x)

B1: Tryptophan synthase alpha chain, P0A877 (parent)
chain: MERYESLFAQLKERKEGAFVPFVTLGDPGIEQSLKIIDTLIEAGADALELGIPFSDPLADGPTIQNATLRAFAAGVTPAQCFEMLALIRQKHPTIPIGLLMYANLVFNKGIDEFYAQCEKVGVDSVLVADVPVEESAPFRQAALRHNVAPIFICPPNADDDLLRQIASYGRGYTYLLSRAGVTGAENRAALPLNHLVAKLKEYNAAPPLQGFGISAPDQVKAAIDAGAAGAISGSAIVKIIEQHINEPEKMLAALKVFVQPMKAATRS

variants of: B1; settings: Escherichia coli (strain K12); pH 7; 25 °C; GdnHCl; CD; Potassium phosphate 0.01 M; reversible: yes; structure 1WQ5; whole UniProt chain shown
Quick rule: unfolding free energy of at least 9 kcal/mol means Y, below that means N.

These recorded examples may help you get a feel for the data.
E49M = Y
E49Q = N
E49S = N

Now for another entry.
hey, is unfolding free energy for this one >= 9 kcal/mol? E49V
Y
